Measured activation values are reported for all entries that follow.
TEST_TARGET: CCR9 (Homo sapiens, UniProt P51686)
Construct: expressed in transfected cells
ASSAY_COMMENT: Figure S2a opioid peptide screen on chemokine receptors
Assay type: cell-based
Set-up: dose or concentration left out as unconfirmed
MEASUREMENT_PARAMETERS: replicate 2, read-out: CCR9 activity, ctrl+ = 100
Starred links: 1 amine or outer side, 2 acyl side, 3 side chain; linkers in the order of their positions; H or OH if unused. Non-standard residues stand in square brackets, D forms with d. Residues, ends and D or L forms follow the SMILES beside them. X1 = N[C@@H](Cc1ccccc1)CN(CC(=O)[*:2])[*:1]
All answers are understood in %, so give the number only.

A selection of reference data follows.
| COMPOUND | MEASURED_ENDPOINT | ASSAY_RESULT |
| --- | --- | --- |
| C[C@H](NC(=O)CNC(=O)[C@@H](NC(=O)[C@H](Cc1ccccc1)NC(=O)CNC(=O)CNC[C@@H](N)Cc1ccccc1)[C@@H](C)O)C(=O)N[C@@H](CCCNC(=N)N)C(=O)N[C@@H](CCCCN)C(=O)N[C@@H](CO)C(=O)N[C@@H](C)C(=O)N[C@@H](CCCNC(=N)N)C(=O)N[C@@H](CCCCN)C(N)=O [FG Nociceptin 1-13] (H-[X1]GFTGARKSARK-NH2) | activation | 0.443 |
| NC(=O)[C@H](Cc1ccccc1)NC(=O)[C@H](Cc1c[nH]c2ccccc12)NC(=O)[C@@H]1CCCN1C(=O)[C@@H](N)Cc1ccc(O)cc1 [Endomorphin-1] | activation | 1.74 |

Read the next record carefully.
Would you mind telling me what activation value was observed for CC[C@H](C)[C@H](NC(=O)[C@H](CCCNC(=N)N)NC(=O)[C@H](CCCNC(=N)N)NC(=O)[C@H](CC(C)C)NC(=O)[C@H](Cc1ccccc1)NC(=O)CNC(=O)CNC(=O)[C@@H](N)Cc1ccc(O)cc1)C(=O)N[C@@H](CCCNC(=N)N)C(=O)N1CCC[C@H]1C(=O)N[C@@H](CCCCN)C(=O)N[C@@H](CC(C)C)C(=O)N[C@@H](CCCCN)C(=O)N[C@@H](Cc1c[nH]c2ccccc12)C(=O)N[C@@H](CC(=O)O)C(=O)N[C@@H](CC(N)=O)C(=O)N[C@@H](CCC(N)=O)C(=O)O [Dynorphin A] ?
-0.279

----------
Measured activation values are reported for all entries that follow.
TEST_TARGET: CCR5 (Homo sapiens)
Construct: expressed in transfected cells
Sequence (P51681 whole entry): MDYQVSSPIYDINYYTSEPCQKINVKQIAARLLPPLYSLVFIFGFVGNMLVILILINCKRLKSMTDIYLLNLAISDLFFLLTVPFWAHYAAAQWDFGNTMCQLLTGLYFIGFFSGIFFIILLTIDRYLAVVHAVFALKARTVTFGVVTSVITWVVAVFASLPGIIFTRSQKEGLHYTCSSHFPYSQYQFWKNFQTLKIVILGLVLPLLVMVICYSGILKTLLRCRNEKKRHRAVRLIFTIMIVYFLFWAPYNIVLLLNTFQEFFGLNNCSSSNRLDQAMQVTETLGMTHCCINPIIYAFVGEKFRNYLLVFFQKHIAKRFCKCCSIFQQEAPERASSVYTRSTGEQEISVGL
ASSAY_COMMENT: Figure S2a opioid peptide screen on chemokine receptors
Format: cell-based
Set-up: dose or concentration left out as unconfirmed
MEASUREMENT_PARAMETERS: replicate 2, read-out: CCR5 activity, ctrl+ = 100
All answers are understood in %, so give the number only.

| LINE_NOTATION | TEST_TARGET | activation [%] |
| --- | --- | --- |
| CC[C@H](C)[C@H](NC(=O)[C@H](CCCNC(=N)N)NC(=O)[C@H](CCCNC(=N)N)NC(=O)[C@H](CC(C)C)NC(=O)[C@H](Cc1ccccc1)NC(=O)CNC(=O)CNC(=O)[C@@H](N)Cc1ccc(O)cc1)C(=O)N[C@@H](CCCNC(=N)N)C(=O)N1CCC[C@H]1C(=O)N[C@@H](CCCCN)C(=O)N[C@@H](CC(C)C)C(=O)N[C@@H](CCCCN)C(=O)N[C@@H](Cc1c[nH]c2ccccc12)C(=O)N[C@@H](CC(=O)O)C(=O)N[C@@H](CC(N)=O)C(=O)N[C@@H](CCC(N)=O)C(=O)O | CCR5 (Homo sapiens) | -1.33 |

Read the next record carefully.
Would you mind telling me what activation value was observed for CC[C@H](C)[C@H](NC(=O)[C@H](CCCNC(=N)N)NC(=O)[C@H](CCCNC(=N)N)NC(=O)[C@H](CC(C)C)NC(=O)[C@H](Cc1ccccc1)NC(=O)CNC(=O)CN)C(=O)N[C@@H](CCCNC(=N)N)C(=O)N1CCC[C@H]1C(=O)N[C@@H](CCCCN)C(=O)N[C@@H](CC(C)C)C(=O)N[C@@H](CCCCN)C(=O)N[C@@H](Cc1c[nH]c2ccccc12)C(=O)N[C@@H](CC(=O)O)C(=O)N[C@@H](CC(N)=O)C(=O)N[C@@H](CCC(N)=O)C(=O)O ?
-2.11

----------
TEST_TARGET: CCR9 (Homo sapiens)
Construct: expressed in transfected cells
Sequence (P51686 1-369): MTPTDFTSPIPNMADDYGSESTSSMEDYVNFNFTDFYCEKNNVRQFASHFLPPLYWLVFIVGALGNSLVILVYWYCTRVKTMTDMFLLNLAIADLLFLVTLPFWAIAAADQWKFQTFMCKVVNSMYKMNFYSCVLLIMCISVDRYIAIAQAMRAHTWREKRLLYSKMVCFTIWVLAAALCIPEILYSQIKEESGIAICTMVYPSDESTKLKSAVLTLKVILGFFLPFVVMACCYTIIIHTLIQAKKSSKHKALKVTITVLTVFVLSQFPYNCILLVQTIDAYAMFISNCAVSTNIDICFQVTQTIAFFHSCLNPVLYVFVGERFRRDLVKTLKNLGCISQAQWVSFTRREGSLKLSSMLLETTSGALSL
ASSAY_COMMENT: Figure S2a opioid peptide screen on chemokine receptors
Type: cell-based
Parameters: dose or concentration left out as unconfirmed
MEASUREMENT_PARAMETERS: replicate 1, read-out: CCR9 activity, ctrl+ = 100
Starred links: 1 amine or outer side, 2 acyl side, 3 side chain; linkers in the order of their positions; H or OH if unused. Non-standard residues stand in square brackets, D forms with d. Residues, ends and D or L forms follow the SMILES beside them. X1 = N[C@@H](Cc1ccccc1)CN(CC(=O)[*:2])[*:1]
MEASURED_ENDPOINT: activation

A selection of reference data follows.
| COMPOUND | activation |
| --- | --- |
| NC(=O)[C@H](Cc1ccccc1)NC(=O)[C@H](Cc1c[nH]c2ccccc12)NC(=O)[C@@H]1CCCN1C(=O)[C@@H](N)Cc1ccc(O)cc1 [Endomorphin-1] | -1.12% |
| C[C@H](NC(=O)CNC(=O)[C@@H](NC(=O)[C@H](Cc1ccccc1)NC(=O)CNC(=O)CNC[C@@H](N)Cc1ccccc1)[C@@H](C)O)C(=O)N[C@@H](CCCNC(=N)N)C(=O)N[C@@H](CCCCN)C(=O)N[C@@H](CO)C(=O)N[C@@H](C)C(=O)N[C@@H](CCCNC(=N)N)C(=O)N[C@@H](CCCCN)C(N)=O [FG Nociceptin 1-13] (H-[X1]GFTGARKSARK-NH2) | -2.13% |
| C[C@H](NC(=O)CNC(=O)[C@@H](NC(=O)[C@H](Cc1ccccc1)NC(=O)CNC(=O)CNC(=O)[C@@H](N)Cc1ccccc1)[C@@H](C)O)C(=O)N[C@@H](CCCNC(=N)N)C(=O)N[C@@H](CCCCN)C(=O)N[C@@H](CO)C(=O)N[C@@H](C)C(=O)N[C@@H](CCCNC(=N)N)C(=O)N[C@@H](CCCCN)C(N)=O | -3.6% |

Read the next record carefully.
Would you mind telling me what activation value was observed for CC[C@H](C)[C@H](NC(=O)[C@H](CCCNC(=N)N)NC(=O)[C@H](CCCNC(=N)N)NC(=O)[C@H](CC(C)C)NC(=O)[C@H](Cc1ccccc1)NC(=O)CNC(=O)CNC(=O)[C@@H](N)Cc1ccc(O)cc1)C(=O)N[C@@H](CCCNC(=N)N)C(=O)N1CCC[C@H]1C(=O)N[C@@H](CCCCN)C(=O)N[C@@H](CC(C)C)C(=O)N[C@@H](CCCCN)C(=O)N[C@@H](Cc1c[nH]c2ccccc12)C(=O)N[C@@H](CC(=O)O)C(=O)N[C@@H](CC(N)=O)C(=O)N[C@@H](CCC(N)=O)C(=O)O ?
0.116%

----------
TEST_TARGET: CCR8 (Homo sapiens, UniProt P51685)
Sequence (P51685 whole entry): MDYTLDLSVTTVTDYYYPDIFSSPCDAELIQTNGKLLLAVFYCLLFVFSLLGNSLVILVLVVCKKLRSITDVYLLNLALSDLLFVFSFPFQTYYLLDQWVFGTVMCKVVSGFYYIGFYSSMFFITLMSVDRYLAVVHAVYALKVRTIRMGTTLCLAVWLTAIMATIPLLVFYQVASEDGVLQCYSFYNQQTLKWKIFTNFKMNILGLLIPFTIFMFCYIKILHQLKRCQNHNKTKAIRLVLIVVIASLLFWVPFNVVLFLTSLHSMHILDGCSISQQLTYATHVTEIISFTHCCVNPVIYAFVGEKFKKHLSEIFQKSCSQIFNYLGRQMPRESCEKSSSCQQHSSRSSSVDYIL
ASSAY_COMMENT: Figure S2a opioid peptide screen on chemokine receptors
Design: dose or concentration left out as unconfirmed
MEASUREMENT_PARAMETERS: read-out: CCR8 activity, ctrl+ = 100, Figure S2a; replicate 2
Starred links: 1 amine or outer side, 2 acyl side, 3 side chain; linkers in the order of their positions; H or OH if unused. Non-standard residues stand in square brackets, D forms with d. Residues, ends and D or L forms follow the SMILES beside them. X1 = N[C@@H](Cc1ccccc1)CN(CC(=O)[*:2])[*:1]
MEASURED_ENDPOINT: activation (%)
All answers are understood in %, so give the number only.

A selection of reference data follows.
| COMPOUND | UNIT_SPEC | ASSAY_RESULT |
| --- | --- | --- |
| C[C@H](NC(=O)CNC(=O)[C@@H](NC(=O)[C@H](Cc1ccccc1)NC(=O)CNC(=O)CNC[C@@H](N)Cc1ccccc1)[C@@H](C)O)C(=O)N[C@@H](CCCNC(=N)N)C(=O)N[C@@H](CCCCN)C(=O)N[C@@H](CO)C(=O)N[C@@H](C)C(=O)N[C@@H](CCCNC(=N)N)C(=O)N[C@@H](CCCCN)C(N)=O [FG Nociceptin 1-13] (H-[X1]GFTGARKSARK-NH2) | % | 3.75 |
| CSCC[C@H](NC(=O)[C@H](Cc1ccccc1)NC(=O)CNC(=O)CNC(=O)[C@@H](N)Cc1ccc(O)cc1)C(=O)N[C@@H](CCCNC(=N)N)C(=O)N[C@@H](CCCNC(=N)N)C(=O)N[C@H](C(N)=O)C(C)C | % | -15.7 |
| CC(C)C[C@H](NC(=O)[C@H](Cc1ccccc1)NC(=O)CNC(=O)CNC(=O)[C@@H](N)Cc1ccc(O)cc1)C(=O)N[C@@H](CCCN=C(N)N)C(=O)N[C@@H](CCCN=C(N)N)C(=O)N[C@@H](CCC(N)=O)C(=O)N[C@@H](Cc1ccccc1)C(=O)N[C@@H](CCCCN)C(=O)N[C@H](C(=O)N[C@H](C(=O)N[C@H](C(=O)O)[C@@H](C)O)C(C)C)C(C)C | % | -25.3 |
| NC(=O)[C@H](Cc1ccccc1)NC(=O)[C@H](Cc1c[nH]c2ccccc12)NC(=O)[C@@H]1CCCN1C(=O)[C@@H](N)Cc1ccc(O)cc1 [Endomorphin-1] | % | 19.4 |

Requested read-out activation, target or system CCR8 (Homo sapiens, UniProt P51685), entry CC[C@H](C)[C@H](NC(=O)[C@H](CCCNC(=N)N)NC(=O)[C@H](CCCNC(=N)N)NC(=O)[C@H](CC(C)C)NC(=O)[C@H](Cc1ccccc1)NC(=O)CNC(=O)CNC(=O)[C@@H](N)Cc1ccc(O)cc1)C(=O)N[C@@H](CCCNC(=N)N)C(=O)N1CCC[C@H]1C(=O)N[C@@H](CCCCN)C(=O)N[C@@H](CC(C)C)C(=O)N[C@@H](CCCCN)C(=O)O
-19.6

Requested read-out activation, target or system CCR8 (Homo sapiens, UniProt P51685), entry CC[C@H](C)[C@H](NC(=O)[C@H](CCCNC(=N)N)NC(=O)[C@H](CCCNC(=N)N)NC(=O)[C@H](CC(C)C)NC(=O)[C@H](Cc1ccccc1)NC(=O)CNC(=O)CN)C(=O)N[C@@H](CCCNC(=N)N)C(=O)N1CCC[C@H]1C(=O)N[C@@H](CCCCN)C(=O)N[C@@H](CC(C)C)C(=O)N[C@@H](CCCCN)C(=O)N[C@@H](Cc1c[nH]c2ccccc12)C(=O)N[C@@H](CC(=O)O)C(=O)N[C@@H](CC(N)=O)C(=O)N[C@@H](CCC(N)=O)C(=O)O
0.623
